System: Erysipelothrix insidiosa
Assay: Antibacterial growth inhibition in phenol red dextrose broth
Format: cell-based
Details: Erysipelothrix rhusiopathiae, 168 h; E. ins.; tested at 100, 10, 1 μg/ml; read-out: Concentration in μ g for 100% Growth Inhibition
Here, each record is paired with measured MIC data.
Kindly format the answer as number then unit.

As a guide, the following entries are already answered.
>>> df
                                   compound  observed_measurement
0  Cc1ccccc1NC(=O)C[n+]1ccn(CC(OCc2ccc(Cl)cc2)c2ccc(Cl)cc2)c1 (stereo not shown) [C6H4pCl/CH2C6H4pCl/CH2CONHC6H4oCH3]              10 µg/mL
1  Clc1ccc(COC(C[n+]2ccn(Cc3ccccc3)c2)c2ccccc2)cc1.[Br-] (stereo not shown) [C6H5/CH2C6H4pCl/CH2C6H5]             100 µg/mL
2  COc1ccc(CC[n+]2ccn(CC(OCc3ccc(Cl)cc3Cl)c3ccc(Cl)cc3Cl)c2)cc1.[Cl-] (stereo not shown) [(CH2)2C6H4pOCH3]               1 µg/mL

Let's switch to this compound now.
Data request: Fill in: MIC of Clc1ccc(Cn2cc[n+](CC(OCc3c(Cl)cccc3Cl)c3ccc(Cl)cc3Cl)c2)c(Cl)c1.[Cl-] (stereo not shown) is ___
Data returned: 1 µg/mL

###

Test system: Cryptococcus neoformans
Assay: Antifungal growth inhibition in Sabouraud's liquid medium
Assay type: cell-based
Settings: Cryptococcus neoformans, 336 h; Cr.n.; tested at 100, 10, 1 μg/ml; read-out: Concentrations in μg/ml for 100% Inhibition of Growth
Entries and their measured MIC follow.
State the answer as a number, implicitly in µg/mL.

Compound	Measured On	Units Label	Observed Measurement
Clc1ccc(COC(C[n+]2ccn(CC=Cc3ccccc3)c2)c2ccc(Cl)cc2Cl)c(Cl)c1.[Cl-] (stereo not shown) [CH2CHCHC6H5]	Cryptococcus neoformans	µg/mL	100
O=C(Cn1cc[n+](CC(OCc2ccc(Cl)cc2Cl)c2ccc(Cl)cc2Cl)c1)c1ccc(Br)cc1.[Cl-] (stereo not shown) [CH2COC6H4pBr]	Cryptococcus neoformans	µg/mL	1
O=C(CCn1cc[n+](CC(OCc2ccc(Cl)cc2Cl)c2ccc(Cl)cc2Cl)c1)c1ccc(Br)cc1.[Cl-] (stereo not shown) [(CH2)2COC6H4pBr]	Cryptococcus neoformans	µg/mL	1

Data request: Query (compound): Clc1ccc(COC(Cn2cc[n+](CCOc3ccccc3)c2)c2ccc(Cl)cc2Cl)c(Cl)c1.[Br-] (stereo not shown) [(CH2)2OC6H5] ; field requested: MIC
Data returned: 10

###

System: Cryptococcus neoformans
Result Type: MIC (µg/mL)
Please reply with the bare figure in µg/mL and do not write the unit itself.

Some solved cases for reference:
Compound	Result Type	Observed Measurement
OC(C[n+]1ccn(CC(OCc2ccc(Cl)cc2)c2ccc(Cl)cc2Cl)c1)c1ccc(Cl)cc1 (stereo not drawn) [2,4(Cl)2C6H3/drawing 65/CH2CHOHC6H4pCl]	MIC	100
O=C(CCn1cc[n+](CC(OCc2ccc(Cl)cc2Cl)c2ccc(Cl)cc2Cl)c1)c1ccc(Cl)cc1.[Cl-] (stereo not drawn)	MIC	1

Data request: Looking for the measured MIC of O=C(C[n+]1ccn(CC(OCc2ccc(Cl)cc2Cl)c2ccc(Cl)cc2Cl)c1)Nc1ccccc1Cl (stereo not drawn) , can you help?
Data returned: 10
